From: ChEMBL document CHEMBL2169808

# target of assay: 2-Hydroxyacid oxidase 2 (Homo sapiens) (UniProt Q9NYQ3)
# Sequence (Q9NYQ3 whole entry): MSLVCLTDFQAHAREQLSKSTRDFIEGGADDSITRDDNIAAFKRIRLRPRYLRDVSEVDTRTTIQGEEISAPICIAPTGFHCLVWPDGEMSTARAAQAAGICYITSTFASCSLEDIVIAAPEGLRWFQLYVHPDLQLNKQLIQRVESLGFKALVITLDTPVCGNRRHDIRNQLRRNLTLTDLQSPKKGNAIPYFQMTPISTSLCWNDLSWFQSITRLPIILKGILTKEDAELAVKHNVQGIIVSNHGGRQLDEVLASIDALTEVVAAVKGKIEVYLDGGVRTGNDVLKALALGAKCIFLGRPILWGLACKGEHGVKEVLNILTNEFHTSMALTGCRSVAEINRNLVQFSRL
# protocol text: Inhibition of human Hao2-mediated oxidation of 2-hydroxyoctanoic acid assessed as proportionate release of H2O2 at 10 uM
attribute measured: inhibition (%)
Please reply with the bare figure in % and do not write the unit itself.

{"columns": ["structure string", "inhibition [%]"],
 "data": [
  ["CC(C)c1n[nH]c(C(=O)O)c1Cc1cccc(-c2ccc(F)cc2)c1", 11],
  ["Cc1n[nH]c(C(=O)O)c1Cc1ccc(-c2ccc(C(F)(F)F)cc2)cc1", 14],
  ["O=C(O)c1[nH]nc(-c2ccccc2)c1Cc1cccc(-c2ccc(F)cc2)c1", 14],
  ["Cc1n[nH]c(C(=O)O)c1Cc1ccc2ccccc2c1", 12],
  ["Cc1n[nH]c(C(=O)O)c1Cc1ccc(C#N)cc1", 6]
]}

Query: # return recorded inhibition for input `Cc1n[nH]c(C(=O)O)c1Cc1cccc(-c2ccc(C(N)=O)cc2)c1`
Reply: 60

Query: # return recorded inhibition for input `Cc1n[nH]c(C(=O)O)c1Cc1ccc(Oc2ccccc2)cc1`
Reply: 43

Query: # return recorded inhibition for input `Cc1n[nH]c(C(=O)O)c1Cc1cccc(C#N)c1`
Reply: 19

Query: # return recorded inhibition for input `Cc1n[nH]c(C(=O)O)c1Cc1cccc(C(N)=O)c1`
Reply: 8

Query: # return recorded inhibition for input `Cc1n[nH]c(C(=O)O)c1Cc1cccc(-c2ccc(C#N)cc2)c1`
Reply: 46

Query: # return recorded inhibition for input `Cc1n[nH]c(C(=O)O)c1Cc1ccc(-c2ccc(F)cc2)cc1`
Reply: 25
